# System: normal NK cells expanded with K562-aAPC
# Test Method Notes: percent inhibition of viability; higher = more inhibition
# Test Parameters: 72 h; IL-2 2.5 ng/mL; 10 nM
Kindly supply the reported percent inhibition of viability values for the records listed here.
Field: numeric (%). Do not append units.

Problem: May I ask what percent inhibition of viability has been recorded for CC(=O)O[C@H]1C(=O)[C@@]2(C)[C@H]([C@H](OC(=O)c3ccccc3)[C@]3(O)C[C@H](OC(=O)[C@H](O)[C@@H](NC(=O)c4ccccc4)c4ccccc4)C(C)=C1C3(C)C)[C@]1(OC(C)=O)CO[C@@H]1C[C@@H]2O [Paclitaxel] (max concentration tested 1000 nM) ?
Solution: 3.65

Problem: What do you get for Nc1nc2[nH]cc(CCc3ccc(C(=O)N[C@@H](CCC(=O)O)C(=O)O)cc3)c2c(=O)[nH]1 [Pemetrexed] (max concentration tested 10000 nM) ?
Solution: -7.62

Problem: What do you get for Clc1ccc(C(c2ccccc2Cl)C(Cl)Cl)cc1 (stereo unspecified) [Mitotane] (max concentration tested 10000 nM) ?
Solution: -5.5

Problem: What do you get for Cc1cc(C)c(/C=C2\C(=O)Nc3ccccc32)[nH]1 [Semaxanib] (max concentration tested 10000 nM) ?
Solution: -4.89

Problem: What do you get for N#Cc1ccc(C(c2ccc(C#N)cc2)n2cncn2)cc1 [Letrozole] (max concentration tested 10000 nM) ?
Solution: -7.21

Problem: What do you get for COCC(=O)NC/C=C/c1ccc2ncnc(Nc3ccc(Oc4ccc(C)nc4)c(C)c3)c2c1 (max concentration tested 10000 nM) ?
Solution: -1.69

* * *

# Test system: IMC-1 (IL-2 20 ng/mL)
# Test Method Notes: percent inhibition of viability; higher = more inhibition
# Test Parameters: 72 h; 100 nM
Kindly supply the reported percent inhibition of viability values for the records listed here.
Field: numeric (%). Do not append units.

Problem: May I ask what percent inhibition of viability has been recorded for COc1ccc(C2=N[C@@H](c3ccc(Cl)cc3)[C@@H](c3ccc(Cl)cc3)N2C(=O)N2CCNC(=O)C2)c(OC(C)C)c1 [Nutlin-3] (max concentration tested 10000 nM) ?
Solution: -1.5

Problem: What do you get for COC1=CC(c2cc3ccccc3[nH]2)=N/C1=C\c1[nH]c(C)cc1C [Obatoclax] (max concentration tested 10000 nM) ?
Solution: -0.16

Problem: What do you get for FC(F)c1nc2ccccc2n1-c1nc(N2CCOCC2)nc(N2CCOCC2)n1 [ZSTK474] (max concentration tested 10000 nM) ?
Solution: -9.08

Problem: What do you get for O=C(O)CCCCC(CCSCc1ccccc1)SCc1ccccc1 (stereo unspecified) [CPI-613] (max concentration tested 10000 nM) ?
Solution: -2.71

Problem: What do you get for CNC(=O)c1ccc(N2C(=S)N(c3cnc(C#N)c(C(F)(F)F)c3)C(=O)C23CCC3)cc1F [ARN 509] (max concentration tested 10000 nM) ?
Solution: 5.83

Problem: What do you get for CCCC(CCC)C(=O)O [Valproic acid] (max concentration tested 1000000 nM) ?
Solution: -0.33

* * *

Kindly supply the reported percent inhibition of viability values for the records listed here.
# System: NKL (IL-2 2.5 ng/mL)
# Test Method Notes: percent inhibition of viability; higher = more inhibition
# Test Parameters: 72 h; 1 nM
In your response, the unit should come after the numeric value.

Problem: May I ask what percent inhibition of viability has been recorded for Clc1ccc(C(c2ccccc2Cl)C(Cl)Cl)cc1 (configuration not stated) [Mitotane] (max concentration tested 10000 nM) ?
Solution: -23.5%

Problem: What do you get for CNC(=O)c1ccc(-c2cnc3ncc(Cc4ccc5ncccc5c4)n3n2)cc1F [NVP-INC280] (max concentration tested 1000 nM) ?
Solution: -12%

Problem: What do you get for Cc1cnc(Nc2ccc(OCCN3CCCC3)cc2)nc1Nc1cccc(S(=O)(=O)NC(C)(C)C)c1 (max concentration tested 10000 nM) ?
Solution: -6.46%

Problem: What do you get for COCC[n+]1c2c(n(Cc3cnccn3)c1C)C(=O)c1ccccc1C2=O [YM155] (max concentration tested 10000 nM) ?
Solution: 10.2%

Problem: What do you get for c1ccc2c(CCNc3ccc(Nc4ccncc4)cc3)c[nH]c2c1 [Serdemetan] (max concentration tested 10000 nM) ?
Solution: -4.48%

Problem: What do you get for CC[C@@H]1C(=O)N(C)c2cnc(Nc3ccc(C(=O)NC4CCN(C)CC4)cc3OC)nc2N1C1CCCC1 [BI 2536] (max concentration tested 1000 nM) ?
Solution: -17.7%

Problem: What do you get for Nc1nc2[nH]cnc2c(=S)[nH]1 [Thioguanine] (max concentration tested 10000 nM) ?
Solution: -14%

* * *

# System: NKL (IL-2 2.5 ng/mL)
# Test Method Notes: percent inhibition of viability; higher = more inhibition
# Test Parameters: 72 h; 10000 nM
Measured Endpoint: percent inhibition of viability (%)
Field: numeric (%). Do not append units.

Problem: May I ask what percent inhibition of viability has been recorded for Nc1nc(N)c2nc(-c3cccc(O)c3)c(-c3cccc(O)c3)nc2n1 [TG100-115] (max concentration tested 10000 nM) ?
Solution: 27.7

Problem: What do you get for Nc1nc(F)nc2c1ncn2[C@@H]1O[C@H](CO)[C@@H](O)[C@@H]1O [Fludarabine] (max concentration tested 10000 nM) ?
Solution: 100

Problem: What do you get for Nc1cc(C(F)(F)F)c(-c2cc(N3CCOCC3)nc(N3CCOCC3)n2)cn1 [Buparlisib] (max concentration tested 10000 nM) ?
Solution: 73.8

Problem: What do you get for N#Cc1ccc(COC[C@H]2O[C@@H](n3c(NCc4ccc(Cl)c(Cl)c4)nc4c(N)ncnc43)[C@H](O)[C@@H]2O)cc1 (max concentration tested 10000 nM) ?
Solution: 9.11

Problem: What do you get for O=C1CN2Cc3c(ccc(Cl)c3Cl)N=C2N1 [Anagrelide] (max concentration tested 10000 nM) ?
Solution: 9.73

Problem: What do you get for Nc1ncn([C@H]2C[C@H](O)[C@@H](CO)O2)c(=O)n1 [Decitabine] (max concentration tested 10000 nM) ?
Solution: 15

Problem: What do you get for O=C(Cc1ccc(-c2ccc(OCCN3CCOCC3)cc2)cn1)NCc1ccccc1 [KX2-391] (max concentration tested 10000 nM) ?
Solution: 89

Problem: What do you get for CN(C)CCOc1ccc(/C(=C(/CCCl)c2ccccc2)c2ccccc2)cc1 [Toremifene] (max concentration tested 10000 nM) ?
Solution: 32.7

* * *

# System: NKL (IL-2 2.5 ng/mL)
# Test Method Notes: percent inhibition of viability; higher = more inhibition
# Test Parameters: 72 h; 10 nM
Measured Endpoint: percent inhibition of viability

Problem: May I ask what percent inhibition of viability has been recorded for CC1(C)CNc2cc(NC(=O)c3cccnc3NCc3ccncc3)ccc21 [Motesanib] (max concentration tested 10000 nM) ?
Solution: -10.7%

Problem: What do you get for C=C1C[C@@H]2[C@H](CC[C@]3(C)C(=O)CC[C@@H]23)[C@@]2(C)C=CC(=O)C=C12 [Exemestane] (max concentration tested 10000 nM) ?
Solution: 9.66%

Problem: What do you get for CC(=O)O[C@H]1C(=O)[C@@]2(C)[C@H]([C@H](OC(=O)c3ccccc3)[C@]3(O)C[C@H](OC(=O)[C@H](O)[C@@H](NC(=O)c4ccccc4)c4ccccc4)C(C)=C1C3(C)C)[C@]1(OC(C)=O)CO[C@@H]1C[C@@H]2O [Paclitaxel] (max concentration tested 1000 nM) ?
Solution: 84.1%

Problem: What do you get for O=C(Nc1cccc(Nc2ncc(Br)c(NCCc3cnc[nH]3)n2)c1)N1CCCC1 [BX-912] (max concentration tested 10000 nM) ?
Solution: -11.4%

Problem: What do you get for CN(C)CCOc1ccc(/C(=C(/CCCl)c2ccccc2)c2ccccc2)cc1 [Toremifene] (max concentration tested 10000 nM) ?
Solution: 8.77%

* * *

# Tested on: IMC-1 (IL-2 20 ng/mL)
# Test Method Notes: drug sensitivity score (DSS) (DSS units); higher = more sensitive; extreme values may be limits of the assay
# Test Parameters: 72 h
Decide using drug sensitivity score: a value greater than or equal to 0.9 is 1.0, a smaller one is 0.0.

Problem: Exam item: decide whether the reported drug sensitivity score for CCc1cc2c(cc1N1CCC(N3CCOCC3)CC1)C(C)(C)c1[nH]c3cc(C#N)ccc3c1C2=O [Alectinib] (max concentration tested 1000 nM) is at least 0.9.
Solution: 0.0

Problem: What do you get for Nc1ccn([C@@H]2O[C@H](CO)[C@@H](O)[C@@H]2O)c(=O)n1 [Cytarabine] (max concentration tested 10000 nM) ?
Solution: 1.0

Problem: What do you get for CN1CCC(COc2cnc(-c3cccc(Cn4nc(-c5cccc(C#N)c5)ccc4=O)c3)nc2)CC1 (max concentration tested 1000 nM) ?
Solution: 0.0

Problem: What do you get for CC1(C)CNc2cc(NC(=O)c3cccnc3NCc3ccncc3)ccc21 [Motesanib] (max concentration tested 10000 nM) ?
Solution: 0.0

Problem: What do you get for O=C(Nc1ccc(-c2ccnc(Nc3ccc(N4CCOCC4)cc3)n2)cc1)C1CCCN1 (stereo unspecified) [XL019] (max concentration tested 10000 nM) ?
Solution: 1.0
